Target: T1, human amylin 3 receptor (human, UniProt P30988 25-474; O60896 24-148)
T1 sequence (looked up) 1: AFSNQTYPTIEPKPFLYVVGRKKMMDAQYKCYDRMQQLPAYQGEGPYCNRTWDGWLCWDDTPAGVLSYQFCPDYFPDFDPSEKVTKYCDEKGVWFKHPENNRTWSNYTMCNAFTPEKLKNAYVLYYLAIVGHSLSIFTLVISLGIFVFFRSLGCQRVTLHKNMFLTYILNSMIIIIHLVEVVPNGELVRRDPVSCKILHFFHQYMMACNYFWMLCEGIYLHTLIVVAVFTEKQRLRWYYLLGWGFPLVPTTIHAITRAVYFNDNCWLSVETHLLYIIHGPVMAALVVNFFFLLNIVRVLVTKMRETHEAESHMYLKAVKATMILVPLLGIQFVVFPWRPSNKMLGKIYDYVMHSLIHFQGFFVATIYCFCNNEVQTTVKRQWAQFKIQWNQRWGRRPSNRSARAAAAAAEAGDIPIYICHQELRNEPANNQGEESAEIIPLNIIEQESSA
T1 sequence (looked up) 2: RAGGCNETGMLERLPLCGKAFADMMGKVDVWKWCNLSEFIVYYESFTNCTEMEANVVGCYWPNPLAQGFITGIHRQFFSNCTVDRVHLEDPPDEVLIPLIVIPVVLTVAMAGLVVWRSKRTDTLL
Test: cell-based or functional assay
Starred links: 1 amine or outer side, 2 acyl side, 3 side chain; linkers in the order of their positions; H or OH if unused. Positions of bridges follow the written chain, without caps; N, C: chain ends. Non-standard residues stand in square brackets, D forms with d. Groups on a side chain read outwards from the residue. Primed or numbered codes have the meaning given here. No end group written: not given here. *: point of attachment. dpeg″ = —[CO(CH2)O(CH2)2O(CH2)NH]— spacer unit, O=C(COCCOCN[*:1])[*:2]; C20 diacid = O=C(O)CCCCCCCCCCCCCCCCCCC(=O)*; C18 diacid = O=C(O)CCCCCCCCCCCCCCCCC(=O)*; γGlu = O=C(O)[C@H](CCC(=O)[*:2])N[*:1]
Measured Endpoint: pEC50 (cAMP accumulation), 0.1% HSA

[
  {
    "Binder": "SCNTSTCATQRLAN[dK]([γGlu-γGlu-dpeg″-γGlu-C20 diacid])LHKSSNNFGPILPPTKVGSETY-NH2 (disulfide 2-7) [Compound A100]",
    "pEC50 (cAMP accumulation), 0.1% HSA": "8.8 pEC50"
  },
  {
    "Binder": "K([dpeg″-dpeg″-γGlu-C18 diacid])CNTSTCATQRLANELHKSSNNFGPILPPTKVGSETY-NH2 (disulfide 2-7) [Compound A113]",
    "pEC50 (cAMP accumulation), 0.1% HSA": "10.6 pEC50"
  },
  {
    "Binder": "K([γGlu-γGlu-dpeg″-dpeg″-γGlu-C20 diacid])CNTSTCATQRLANELHKSSNNFGPILPPTKVGSETY-NH2 (disulfide 2-7) [Compound A112]",
    "pEC50 (cAMP accumulation), 0.1% HSA": "9.3 pEC50"
  },
  {
    "Binder": "SCNTSTCATQRLANEKHKSSNNFGPILPPTKVGSETY (L-Lys 16 acylated: K*(γGlu-dpeg-dpeg-(γGlu)4-CO(CH2)14CH3); disulfide bridge Cys2-Cys7; C-terminal amide) [Compound A5]",
    "pEC50 (cAMP accumulation), 0.1% HSA": "10.8 pEC50"
  }
]

Next binder, pEC50 (cAMP accumulation), 0.1% HSA to be filled in.
Query: Give the measured pEC50 (cAMP accumulation), 0.1% HSA of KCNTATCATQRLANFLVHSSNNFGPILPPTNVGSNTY-NH2 (disulfide 2-7; ends not checked) [Pramlintide] .
Result: 12.6 pEC50

Every entry's value here was drawn from patent US20200115430A1.
